- Test system: UACC-62 melanoma
- ASSAY_SUMMARY: NCI tumour cell line growth inhibition, 48 h
MEASURED_METRIC: GI50

# MOL_SMILES, GI50
records = [
    ("Cc1ccc(S(=O)(=O)OC[C@@]2(C)CC[C@]3(C)CC[C@]4(C)C(=CC[C@@H]5[C@@]6(C)CCCNC(C)(C)[C@@H]6CC[C@]54C)[C@@H]3C2)cc1", "1830 nM"),
    ("C[C@@H]1OCC2(CCN(c3cnc(Sc4ccnc(N)c4Cl)c(N)n3)CC2)[C@@H]1N", "> 100000 nM"),
    ("COc1ccc2c(c1)C(=O)c1c-2c(NCCN(C)C)nc2ccccc12", "15800 nM"),
]

--- query ---
Exercise: # value lookup — system UACC-62 melanoma, readout GI50, item "CCN(CC)CC[n+]1cc2cc(OC)c(OC)cc2c2ccc3cc4c(cc3c21)OCO4"
Solution: 1220 nM
